system: SK-MEL-28; experiment: NCI tumour cell line growth inhibition, 48 h
Structures can show the parent of a compound that is named as a salt. Active and inactive are the calls of the source. Rule as the data show it: active = GI50 up to about 1.1 µM and inactive = higher.
Outcome codes: true for active, false for inactive

molecule	tgt	class
COC(=O)c1c(OC(C)=O)ccc2c1c1c(n2C)C(=O)c2ccccc2C1=O	SK-MEL-28	false
Cc1nc2ccc(NCCN(C)C)c3c(=O)c4cc(O)ccc4n1c23	SK-MEL-28	false
O=c1[nH]c(=O)n([C@@H]2C[C@H](CO)[C@H](O)C2)cc1/C=C/Br	SK-MEL-28	false
COC(=O)C(CC(C)C)NC(=O)NC12CC3CC(CC(F)(C3)C1)C2 (centres undefined)	SK-MEL-28	false
O=C(O)CNc1c2ccccc2nc2ccccc12	SK-MEL-28	false
COc1ccc(-c2cc(-c3ccc(Nc4ccnc5cc(Cl)ccc45)cc3)nc(N)c2C#N)cc1	SK-MEL-28	false
O=C(O)/C(O)=C\C(=O)c1ccc(Br)cc1	SK-MEL-28	false
CC[C@]12CN3CCc4c([nH]c5ccccc45)[C@@](C(=O)OC)(c4cc5c(cc4OC)N(C)[C@H]4[C@@](O)(C(=O)OC)[C@H](OC(C)=O)[C@]6(CC)C=CCN7CC[C@]54[C@@H]76)CC(C3)[C@H]1O2 (some centres undefined) [VINLEUROSINE SULFATE]	SK-MEL-28	true
O=c1oc2cc(O)ccc2cc1-c1nc2ccccc2o1	SK-MEL-28	false

----------
tested on: NCI-H522; test: NCI tumour cell line growth inhibition, 48 h
Active and inactive are the calls of the source. Rule as the data show it: active = GI50 up to about 1.1 µM and inactive = higher.
outcome measure: GI50

In [3]: df
Out[3]:
                                    compound       tgt  outcome_measure             measured
 0  COc1ccc(C2OC(c3ccncc3)=NN2C)cc1F (configuration not stated)  NCI-H522             GI50  > 100 µM (inactive)
 1  COc1ccc(CCCNC(=O)c2cc(OC)c(OC)cc2CCO)cc1OC  NCI-H522             GI50  > 100 µM (inactive)
 2              O=S(=O)(CF)OCCCCOS(=O)(=O)CF  NCI-H522             GI50  > 100 µM (inactive)
 3  CCOC12OC3=C(CC1CC1=C(CCC1=O)O2)C(=O)CC3 (configuration not stated)  NCI-H522             GI50  > 100 µM (inactive)
 4           O=C(/C=C\Nc1ccccc1O)C(Cl)(Cl)Cl  NCI-H522             GI50   22.6 µM (inactive)
 5  CC(=O)c1sc2c(c1OC(=O)c1ccc(Cl)cc1)c(=O)n(-c1ccccc1)c(=S)n2-c1ccccc1  NCI-H522             GI50   1.53 µM (inactive)
 6  CC1=CC(=O)NP(=O)(Oc2ccc(C)cc2)N1 (configuration not stated)  NCI-H522             GI50  > 100 µM (inactive)
 7                     Cc1ccccc1NC(=O)/C=N/O  NCI-H522             GI50  > 100 µM (inactive)
 8  Cc1ccc(C2SCc3nc4ccccc4n32)cc1 (configuration not stated)  NCI-H522             GI50   4.74 µM (inactive)
 9  Cc1ccc(S(=O)(=O)N2CCN(CCO)CCN(S(=O)(=O)c3ccc(C)cc3)CCN(CCO)CC2)cc1  NCI-H522             GI50   18.7 µM (inactive)
10  C=C(C)C1CC=C(C)C2(C1)OCC(C)(C)C(C)O2 (configuration not stated)  NCI-H522             GI50   17.7 µM (inactive)
11  C=C(C)C1CC=C(C(=O)O)CC1 (configuration not stated)  NCI-H522             GI50    887 µM (inactive)

----------
tested on: 786-0; experiment: NCI tumour cell line growth inhibition, 48 h
Active and inactive are the calls of the source. Rule as the data show it: active = GI50 up to about 1.1 µM and inactive = higher.
outcome measure: GI50

                                    compound             measured
 0        Cc1cnoc1/N=C1\C=C(O)C(=O)c2ccccc21   53.2 µM (inactive)
 1  COc1cc2c(c(OC)c1OC)-c1ccc(SC)c(=O)cc1[C@@H](NCc1ccc(C#N)cc1)CC2  0.00528 µM (active)
 2  NC1=NN(c2ccccc2)C(=O)C1C(=O)CCC(=O)Nc1cccc(Cl)c1 (configuration not stated)  > 100 µM (inactive)
 3  CCOC(=O)/C(C#N)=C1/C(O)=C(C(=O)OC)C(C(=O)OC)=C1C(=O)OC.c1ccncc1  > 100 µM (inactive)
 4  Cc1c(C)n(-c2ccccc2)c2nc(S(C)(=O)=O)nc(S(C)(=O)=O)c12   1.28 µM (inactive)
 5  CC(=O)OC1CC2OC(Cc3ccccc32)O1 (configuration not stated)  > 100 µM (inactive)
 6  COC(=O)C1=C(C(=O)OC)C2C(C)=CC(C)=CN2C(C#N)=C(SC)S1 (configuration not stated)   30.8 µM (inactive)
 7  COc1cc2c(cc1OC)C1=CCC(c3ccccc3)[N+]1(C)CC2 (configuration not stated)  > 100 µM (inactive)
 8  NC(=O)C(=O)N/N=C1\C(=O)N(c2ccc(Cl)cc2Cl)C(=O)C1C(=O)Nc1ccc(Cl)cc1Cl (configuration not stated)  > 100 µM (inactive)
 9  Cn1c(=O)oc2cc(C(=O)CN3CCN(Cc4ccc5c(c4)OCO5)CC3)c(Cl)cc21  > 100 µM (inactive)
10  O=C(N/N=C/c1ccc([N+](=O)[O-])cc1)Nc1ccc(Br)cc1   84.7 µM (inactive)
11   COc1cccc(OC)c1/C=C1\OC(=O)c2cccc(OC)c21   5.02 µM (inactive)
12  COc1ccc2c(c1OC)OC[C@@H](C1=CC(=O)C=C(O)C1=O)C2   5.38 µM (inactive)
13      O=c1ccn([C@@H]2C[C@@H]2CO)c(=O)[nH]1  > 100 µM (inactive)
14  O=C1C2=C(CCCCC2)C2CCCCC12O (configuration not stated)  > 100 µM (inactive)
15           CCCCC/C(=N\c1[nH]nnc1C(N)=O)OCC  > 100 µM (inactive)
16                   CC(C)(C)OC(=O)N1CCCC1=O   > 10 µM (inactive)
17      COC(=O)c1ccc(/C=C2\Cc3ccccc3C2=O)cc1  > 100 µM (inactive)
18  c1ccc(COCC2OC3c4ccccc4COC3C2OCc2ccccc2)cc1 (configuration not stated)  > 100 µM (inactive)
19  CCOC(=O)C1=C(C)NC(C)=C(C(=O)OCC)C1c1ccc(C)cc1     20 µM (inactive)
20  COC(=O)[C@@H]1COC(C(C)(C)C)N1C(=O)C(c1ccccc1)c1ccccc1 (some centres not stated)   46.2 µM (inactive)
21  Cc1ccc(-c2c3c(n(C4OC(CO)C(O)C(O)C4O)c(=S)c2C#N)CC(C)(C)CC3=O)cc1 (configuration not stated)   47.4 µM (inactive)

----------
test system: NCI-H226; assay: NCI tumour cell line growth inhibition, 48 h
The source made the active and inactive calls. Cut-off read from the data, not from the text of the source: active = GI50 up to about 1.1 µM and inactive = higher.
outcome measure: GI50

>>> df
                                    compound             measured
 0  CC(=O)NC1(NC(C)=O)C2CC(C1Cc1ccccc1)C(C)(C)C2C (configuration not stated)  > 100 µM (inactive)
 1  c1ccc(-c2cc3[nH]c4ccccc4[nH]c-3cc(-c3ccccc3)nn2)cc1   45.6 µM (inactive)
 2  COc1ccc(C2c3c(n(C)c(=O)n(C)c3=O)OC(N(C)C)(N(C)C)C2(F)F)cc1 (configuration not stated)  > 100 µM (inactive)
 3  O/N=C1/CC2(N3CCOCC3)C3CC/C(=N\O)C2CC1(Cc1ccccc1)C3 (configuration not stated)  > 100 µM (inactive)
 4             CN(C)c1nc2n(CCO)ccnc-2c(=O)n1  > 100 µM (inactive)
 5          c1csc(-c2nccc3c2[nH]c2ccccc23)c1     12 µM (inactive)
 6    Cc1c(C)c2cc3c(=O)c(CCl)coc3c(C)c2oc1=O  > 100 µM (inactive)
 7  N#CC(c1ccccc1)c1cccc2ccccc12 (configuration not stated)  > 100 µM (inactive)
 8  CC(C)[C@H](COC(C)(C)C)/N=C/N1CSc2ccccc21   48.3 µM (inactive)
 9  CO/N=C(/C)c1cccc(Nc2nc3ccc(Cl)cc3c3[nH]c4ccccc4c23)c1   12.5 µM (inactive)
10        C/C(=C/C(=O)Nc1ccccc1)Nc1onc(C)c1C  > 100 µM (inactive)
11          Nc1nc(N)nc(CCCCc2nc(N)nc(N)n2)n1  > 100 µM (inactive)
